Values compiled from PubChem BioAssay (Tox21).

Biological target: Nuclear receptor subfamily 1 group I member 2 (Homo sapiens)
Assay: Human pregnane X receptor (PXR) small molecule agonists, qHTS assay (AID 1346982); also: nearly all actives have a fitted effect of over 35% in size
Settings: PXR-Luc HepG2, CYP3A4 luciferase reporter, 24 h; series mostly up to 92.4 µM
Text: National Center for Advancing Translational Sciences [NCATS] NIH Chemical Genomics Center [NCGC] U.S. Environmental Protection Agency [EPA] National Institutes of Environmental Health Sciences [NIEHS] National Toxicology Program [NTP] The human pregnane X receptor (hPXR) regulates the expression of several drug metabolizing enzymes and induction of these proteins is a major mechanism for developing drug resistance in cancer. […]
Results filed as inconclusive are left out. Calls of active or inactive are those of the source. Calls follow the shape of the dose curve; as a rule, active = well fitted activation curve with a large enough effect in the repeat runs; inconclusive = weak or mixed curves; inactive = no such curve, though single readings can be large or run the other way.
Form entry, call: pick from y for active, n for inactive

Worked examples, 2 molecules total:
Record Smiles	Answer Label
COc1ccc2c(c1OC)C(=O)O[C@@H]2[C@H]1c2cc3c(cc2CCN1C)OCO3	y
CCCN	n

Now consider the entry below.
Please let me know the test result on file for `C[C@@H]1CC2=CC(=O)CC[C@@H]2[C@H]2CC[C@@]3(C)[C@@H](CC[C@]3(C)O)[C@@H]21` .
n

* * *

assay: qHTS assay to identify small molecule agonists of the sonic hedgehog signaling (Shh) pathway (AID 1259368); details: NIH/3T3 Gli1-Luc reporter, luciferase, 24 h; series mostly up to 92.4 µM; also: nearly all actives have a fitted effect of over 15% in size; also: potency is read from the fitted curve at half-maximal effect
Active and inactive are the calls of the source. Calls follow the shape of the full dose curve.
Measure: Potency

Compound	Potency
Cc1ccn2nc(S(=O)(=O)Nc3c(F)cccc3F)nc2n1	inactive
CC(=O)[O-].CC(=O)[O-].[Co+2]	54.5 µM (active)
BrCCCBr	inactive
CN(C)C(=S)SSC(=S)N(C)C	inactive
CCOP(=S)(NC(C)C)Oc1ccccc1C(=O)OC(C)C (configuration not stated)	inactive
O=C1C2(Cl)C3(Cl)C4(Cl)C(Cl)(Cl)C5(Cl)C3(Cl)C1(Cl)C5(Cl)C24Cl (configuration not stated)	inactive
CC(C)c1c(CN(C)C(C)Cc2ccccc2)n(C)n(-c2ccccc2)c1=O (configuration not stated)	inactive
COc1ccc2[nH]cc(CCN(C(C)C)C(C)C)c2c1	inactive
c1ccc2nc(N3CCNCC3)ccc2c1	inactive
COc1ccc2c3c1O[C@H]1[C@H](O)CC[C@H]4[C@@H](C2)N(C)CC[C@@]341	inactive

Now for a further compound.
Entry `O=C(Cl)c1ccccc1F` has what Potency?
inactive

* * *

test: qHTS assay to identify small molecule agonists of the RXR signaling pathway - cell viability counter screen (AID 1159529); settings: RXR-alpha-bla HEK293T viability, CellTiter-Glo, 16 h; series mostly up to 76.8 µM;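 also: HEK 293T cells carrying an RXR-alpha UAS beta-lactamase reporter; nearly all actives have a fitted effect of over 50% in size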
Inconclusive results are not listed. Calls of active or inactive are those of the source. The call rests on the fitted dose curve; in most records, active means well fitted cell-killing curve with a large enough effect in the repeat runs; inconclusive means weak or mixed curves, or effect the other way; inactive means no such curve, though single readings can be large or run the other way.
Measure: outcome

Compound	Measure	Value Reported
CC(C)c1c(CN(C)C(C)Cc2ccccc2)n(C)n(-c2ccccc2)c1=O (stereo not drawn)	outcome	inactive
Cc1ccn2nc(S(=O)(=O)Nc3c(F)cccc3F)nc2n1	outcome	inactive
c1ccc(N=NNc2ccccc2)cc1	outcome	inactive

* * *

assay: qHTS assay to identify small molecule agonists of the AP-1 signaling pathway - cell viability counter screen (AID 1159525); settings: ME-180 (cervical carcinoma) AP-1-bla cells viability, ATP luminescence, 5 h; series mostly up to 76.8 µM; also: nearly all actives have a fitted effect of over 55% in size
Records with an inconclusive call do not appear. Calls of active or inactive are those of the source. The call rests on the fitted dose curve.
Form entry, call: pick from yes = active, no = inactive

Compound	Answer Label
O=C(N[C@@H]1N=C(c2ccccc2F)c2cccc3c2N(CC3)C1=O)c1cc2ccccc2[nH]1	no
Clc1cc(Cl)c(-c2cc(Cl)c(Cl)cc2Cl)cc1Cl	no
N#Cc1c2ccccc2cc2ccccc12	no

Please let me know the test result on file for `Nc1cc(Cl)ccc1Cl` .
no

Please let me know the test result on file for CC(Cl)CCl (centres undefined) .
no

Please let me know the test result on file for `CC(=O)[O-].CC(=O)[O-].[Co+2]` .
no
